- Measured target: POLγA:A467T (Homo sapiens, UniProt P54098, A467T)
- Sequence (P54098 1-1239 A467T): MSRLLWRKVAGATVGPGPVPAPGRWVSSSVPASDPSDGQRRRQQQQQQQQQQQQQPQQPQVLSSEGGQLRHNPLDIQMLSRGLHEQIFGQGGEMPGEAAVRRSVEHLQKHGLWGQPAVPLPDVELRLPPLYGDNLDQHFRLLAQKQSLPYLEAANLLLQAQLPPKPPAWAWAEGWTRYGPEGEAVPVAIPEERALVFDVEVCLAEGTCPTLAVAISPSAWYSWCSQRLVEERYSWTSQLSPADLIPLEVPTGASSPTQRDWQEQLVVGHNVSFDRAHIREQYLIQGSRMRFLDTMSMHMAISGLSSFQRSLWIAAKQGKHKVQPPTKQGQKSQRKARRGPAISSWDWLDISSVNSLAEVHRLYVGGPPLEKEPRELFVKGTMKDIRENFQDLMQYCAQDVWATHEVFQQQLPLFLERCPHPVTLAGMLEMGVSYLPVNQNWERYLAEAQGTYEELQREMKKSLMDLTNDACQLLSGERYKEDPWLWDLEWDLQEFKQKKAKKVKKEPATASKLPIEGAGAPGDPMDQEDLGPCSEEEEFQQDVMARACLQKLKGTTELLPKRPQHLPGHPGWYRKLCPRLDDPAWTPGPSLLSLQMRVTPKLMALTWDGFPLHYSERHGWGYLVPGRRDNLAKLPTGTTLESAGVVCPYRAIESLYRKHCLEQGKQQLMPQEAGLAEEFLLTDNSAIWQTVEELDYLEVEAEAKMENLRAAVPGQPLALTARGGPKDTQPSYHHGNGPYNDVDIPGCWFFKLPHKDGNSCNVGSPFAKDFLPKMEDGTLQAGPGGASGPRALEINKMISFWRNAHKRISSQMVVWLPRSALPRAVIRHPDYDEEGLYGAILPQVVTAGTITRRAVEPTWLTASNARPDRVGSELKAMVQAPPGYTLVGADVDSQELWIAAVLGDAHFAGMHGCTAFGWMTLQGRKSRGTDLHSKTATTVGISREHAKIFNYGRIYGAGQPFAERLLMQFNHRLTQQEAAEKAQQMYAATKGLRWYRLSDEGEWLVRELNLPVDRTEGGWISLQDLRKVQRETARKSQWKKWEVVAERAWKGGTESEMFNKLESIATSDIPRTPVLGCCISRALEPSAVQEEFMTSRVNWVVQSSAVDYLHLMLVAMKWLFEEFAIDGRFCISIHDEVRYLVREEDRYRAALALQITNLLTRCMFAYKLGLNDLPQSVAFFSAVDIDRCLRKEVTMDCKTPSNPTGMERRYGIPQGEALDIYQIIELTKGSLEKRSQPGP
- Sequence (Q9UHN1 1-485 partner): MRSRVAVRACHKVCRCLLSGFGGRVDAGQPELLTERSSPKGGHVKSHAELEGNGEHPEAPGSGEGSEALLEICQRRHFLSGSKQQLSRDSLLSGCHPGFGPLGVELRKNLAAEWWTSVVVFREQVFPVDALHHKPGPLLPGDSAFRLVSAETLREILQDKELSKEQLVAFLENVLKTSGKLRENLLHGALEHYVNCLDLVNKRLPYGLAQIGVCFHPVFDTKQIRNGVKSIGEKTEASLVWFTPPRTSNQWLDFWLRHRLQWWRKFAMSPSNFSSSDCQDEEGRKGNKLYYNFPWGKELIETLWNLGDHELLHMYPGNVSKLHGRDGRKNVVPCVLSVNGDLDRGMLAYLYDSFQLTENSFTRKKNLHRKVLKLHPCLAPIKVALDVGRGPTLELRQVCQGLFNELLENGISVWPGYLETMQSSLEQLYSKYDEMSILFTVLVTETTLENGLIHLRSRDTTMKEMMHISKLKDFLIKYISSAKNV
- Test method notes: DNA polymerization assay, POLγA:A467T mutant
- Assay type: biochemical
- Condition info: stimulation of polymerase activity, primed M13mp18 ssDNA, 37° C. 2 hours; read-out: A467T AC50
Value kind: AC50

| Compound | Measured target | Value kind | Observed result |
| --- | --- | --- | --- |
| Cc1ccc(C)c(S(=O)(=O)Nc2cccc(C(=O)N3CCOCC3)c2)c1 | POLγA:A467T (Homo sapiens, UniProt P54098, A467T) | AC50 | > 100 µM |
| Cc1cc(Cl)ccc1S(=O)(=O)Nc1cccc(C(=O)N2CCC[C@H]2C)c1 | POLγA:A467T (Homo sapiens, UniProt P54098, A467T) | AC50 | > 100 µM |
| Cc1nc2cc(NS(=O)(=O)c3cc(C)c(Cl)cc3C)ccc2s1 | POLγA:A467T (Homo sapiens, UniProt P54098, A467T) | AC50 | > 100 µM |

// lookup AC50 for `O=S(=O)(Nc1csc(-c2ccccc2)n1)c1ccc(F)c(F)c1`
> 100 µM

For `O=S(=O)(Nc1csc(-c2ccccc2)n1)c1ccc(Cl)cc1Cl` , what is its reported AC50?
> 100 µM

----------
- Measured target: wild type human POLγ (POLγA:WT) (Homo sapiens, UniProt P54098)
- Sequence (P54098 1-1239): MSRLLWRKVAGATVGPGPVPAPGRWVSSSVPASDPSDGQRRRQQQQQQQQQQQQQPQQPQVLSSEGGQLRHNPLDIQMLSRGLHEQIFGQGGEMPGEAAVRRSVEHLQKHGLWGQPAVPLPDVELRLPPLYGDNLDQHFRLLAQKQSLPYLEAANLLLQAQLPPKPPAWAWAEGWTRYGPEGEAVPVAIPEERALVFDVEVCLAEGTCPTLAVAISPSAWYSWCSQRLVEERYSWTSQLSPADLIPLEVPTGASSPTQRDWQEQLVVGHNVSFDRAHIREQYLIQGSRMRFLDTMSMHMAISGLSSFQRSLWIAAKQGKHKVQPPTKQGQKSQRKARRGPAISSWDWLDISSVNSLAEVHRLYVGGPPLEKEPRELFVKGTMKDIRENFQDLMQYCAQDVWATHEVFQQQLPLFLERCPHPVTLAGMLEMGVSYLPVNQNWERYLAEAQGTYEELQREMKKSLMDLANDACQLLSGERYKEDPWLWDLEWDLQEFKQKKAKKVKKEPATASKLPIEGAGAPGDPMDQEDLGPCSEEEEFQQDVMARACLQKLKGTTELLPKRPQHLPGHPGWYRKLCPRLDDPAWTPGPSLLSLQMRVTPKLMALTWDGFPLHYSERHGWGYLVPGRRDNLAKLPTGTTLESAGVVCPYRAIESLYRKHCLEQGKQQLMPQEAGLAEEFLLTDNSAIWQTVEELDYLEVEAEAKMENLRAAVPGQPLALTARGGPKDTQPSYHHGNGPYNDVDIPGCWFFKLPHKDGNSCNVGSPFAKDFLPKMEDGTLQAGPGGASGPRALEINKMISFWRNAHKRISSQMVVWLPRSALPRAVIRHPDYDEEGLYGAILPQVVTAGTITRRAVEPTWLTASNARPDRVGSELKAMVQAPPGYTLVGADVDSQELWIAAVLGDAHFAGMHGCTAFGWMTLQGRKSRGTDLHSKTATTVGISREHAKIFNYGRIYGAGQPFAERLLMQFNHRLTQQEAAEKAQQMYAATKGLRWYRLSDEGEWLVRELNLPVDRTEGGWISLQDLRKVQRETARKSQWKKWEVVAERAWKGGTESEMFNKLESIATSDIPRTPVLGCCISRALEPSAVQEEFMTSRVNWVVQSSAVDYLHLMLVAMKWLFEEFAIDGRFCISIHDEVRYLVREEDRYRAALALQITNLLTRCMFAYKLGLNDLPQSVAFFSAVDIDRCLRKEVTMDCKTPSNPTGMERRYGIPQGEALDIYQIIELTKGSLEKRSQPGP
- Sequence (Q9UHN1 1-485 partner): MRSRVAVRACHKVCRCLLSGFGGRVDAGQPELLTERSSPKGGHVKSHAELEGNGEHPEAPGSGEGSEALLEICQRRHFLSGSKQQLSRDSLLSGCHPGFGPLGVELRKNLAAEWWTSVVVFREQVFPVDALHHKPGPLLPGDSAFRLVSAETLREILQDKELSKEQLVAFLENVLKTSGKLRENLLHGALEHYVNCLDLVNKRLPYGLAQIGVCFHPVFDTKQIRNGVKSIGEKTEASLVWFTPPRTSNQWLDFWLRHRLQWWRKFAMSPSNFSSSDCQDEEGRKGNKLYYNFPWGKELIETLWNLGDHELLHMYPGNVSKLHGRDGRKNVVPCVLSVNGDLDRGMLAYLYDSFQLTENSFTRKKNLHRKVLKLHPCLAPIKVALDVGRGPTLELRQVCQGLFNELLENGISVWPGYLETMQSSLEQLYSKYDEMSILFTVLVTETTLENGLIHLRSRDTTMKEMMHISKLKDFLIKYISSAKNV
- Test method notes: DNA polymerization assay, wild type POLγ
- Format: biochemical
- Condition info: 100 μM dNTP, read-out: WT AC50 (μM) at 100 μM
Value kind: AC50

Please review the following examples before continuing.
| Compound | AC50 |
| --- | --- |
| Cc1cc(S(=O)(=O)Nc2cn(-c3ccccc3)cn2)c(C)cc1Cl [Example 169] | > 10 µM |
| Cc1cnc(-c2ccc(C)c(NS(=O)(=O)c3cc(C)c(Cl)cc3C)c2)s1 [Example 98] | > 10 µM |
| Cc1cc(Cl)ccc1S(=O)(=O)Nc1cccc(C(=O)N2CCC[C@H]2C)c1 [Example 116] | > 10 µM |
| Cc1cc(S(=O)(=O)Nc2cccc(C(=O)N(C)c3ccccn3)c2)c(C)cc1Cl [Example 109] | > 100 µM |
| Cc1cc(S(=O)(=O)Nc2csc(C(=O)N(C)CC(N)=O)n2)c(C)cc1Cl [Example 172] | > 100 µM |
| Cc1cc(S(=O)(=O)Nc2cccc(C(=O)N3CCC[C@H]3C(C)C)c2)c(C)cc1Cl [Example 67] | > 10 µM |

Proceeding to the next compound to report its AC50.
// lookup AC50 | system=wild type human POLγ (POLγA:WT) (Homo sapiens, UniProt P54098) | key= Cc1cc2cc(NS(=O)(=O)c3cc(C)c(Cl)cc3C)ccc2[nH]1 [Example 184]
> 100 µM
